# TARGET OR TEST SYSTEM: human GPR40 (Homo sapiens (Human), UniProt O14842)
# Sequence (O14842 whole entry): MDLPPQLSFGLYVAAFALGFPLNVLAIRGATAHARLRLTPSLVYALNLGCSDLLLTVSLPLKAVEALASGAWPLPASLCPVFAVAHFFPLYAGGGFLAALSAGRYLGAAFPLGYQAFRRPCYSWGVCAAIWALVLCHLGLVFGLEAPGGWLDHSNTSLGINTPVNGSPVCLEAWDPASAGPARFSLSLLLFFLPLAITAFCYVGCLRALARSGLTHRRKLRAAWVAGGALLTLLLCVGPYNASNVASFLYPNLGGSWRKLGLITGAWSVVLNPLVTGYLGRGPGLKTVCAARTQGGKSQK
# EXPERIMENTAL PROTOCOL: GPR40 Calcium Flux Assay;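 further: calcium flux followed with the Fluo-8 fluorescent dye, intensity read each second over 8 min as compounds were added to the cells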
# ASSAY CONDITIONS: transfected HEK293 cells stably expressing human GPR40; Ca2+ mobilization; mean data; read-out: hGPR40 Ca^2+ Assay EC50
pEC50: −log10 of the molar value.
Is pEC50 at least 7? Then Yes. If not, No.

Take a look at these entries with their results.
Hello, I need to know if CC#C[C@@H](Cc1nnn[nH]1)c1ccc(OCc2ccc3scc(-c4cnc(OCCOC)cc4C)c3c2)cc1 has measured pEC50 not below 7. Thanks! Yes

Given CC#C[C@@H](Cc1nnn[nH]1)c1ccc(OCc2ccc3scc(C4CCCC4)c3c2)cc1 , state whether its pEC50 is at least 7. Yes

Evaluate CC#C[C@@H](Cc1nnn[nH]1)c1ccc(OCc2cc3c(-c4ccc(OC)cc4C)csc3cn2)cc1 : pEC50 at minimum 7? Yes

Further cases:
Please tell me: is the molecule CC#C[C@@H](Cc1nnn[nH]1)c1ccc(OCc2ccc3scc(-c4ccc(OCC5(O)CCS(=O)(=O)CC5)cc4C)c3c2)cc1 at or over 7 in terms of pEC50? No

Could you tell me if the measured pEC50 of CC#C[C@@H](Cc1nnn[nH]1)c1ccc(OCc2ccc3scc(-c4ccccc4Cl)c3c2)cc1 reaches 7 or more? Yes

Would you say CC#C[C@@H](Cc1nnn[nH]1)c1ccc(OCc2ccc3scc(-c4ccc(OC)cc4C)c3n2)cc1 shows pEC50 at minimum 7? No

Would you say CC#C[C@@H](Cc1nnn[nH]1)c1ccc(OCc2ccc3scc(-c4ccccc4C)c3c2)nc1 shows pEC50 at minimum 7? Yes

* * *

# TARGET OR TEST SYSTEM: human GPR40 (Homo sapiens (Human))
# EXPERIMENTAL PROTOCOL: GPR40 Calcium Flux Assay
# ASSAY CONDITIONS: transfected HEK293 cells stably expressing human GPR40; Ca2+ mobilization; mean data; read-out: hGPR40 Ca^2+ Assay EC50
Quick rule for you: EC50 under 100 nM gets t, anything else gets f.

Example entries and their recorded answers appear below.
Below 100 nM on EC50? Entry CC#C[C@@H](Cc1nnn[nH]1)c1ccc(OCc2ccc3scc(-c4ccc(OC5CCOCC5)cc4C)c3c2)cc1 f

Does the reported EC50 of the following compound sit strictly below 100 nM? CC#C[C@@H](Cc1nnn[nH]1)c1ccc(OCc2ccc3scc(-c4ccc(OCCOC)cc4C)c3c2)nc1 t

Record CC#C[C@@H](Cc1nnn[nH]1)c1ccc(OCc2cc(C)c3scc(C4CCCC4)c3c2)cc1 : is its EC50 strictly below 100 nM? f

Strictly below 100 nM in EC50? CC#C[C@@H](Cc1nnn[nH]1)c1ccc(OCc2ccc3scc(-c4cc(OCCOC)cnc4C)c3c2)cc1 t

In the record for CC#C[C@@H](Cc1nnn[nH]1)c1ccc(OCc2ccc3sc(C(F)(F)F)c(C4CC4)c3c2)cc1 , is EC50 less than 100 nM? f

Turning now to a further compound:
Input CC#C[C@@H](Cc1nnn[nH]1)c1ccc(OCc2ccc3scc(-c4cccc5c4CCN5C(=O)CC)c3c2)cc1 ; condition: EC50 strictly below 100 nM. Does it hold? t

* * *

# TARGET OR TEST SYSTEM: human GPR40 (Homo sapiens (Human))
# EXPERIMENTAL PROTOCOL: GPR40 Calcium Flux Assay
# ASSAY CONDITIONS: transfected HEK293 cells stably expressing human GPR40; Ca2+ mobilization; mean data; read-out: hGPR40 Ca^2+ Assay EC50
MEASUREMENT LABEL: pEC50
// pEC50: -log10(molar conc.)

Use the examples below as a reference point.
# pEC50 lookup, item CC#C[C@@H](Cc1nnn[nH]1)c1ccc(OCc2ccc3scc(C(C)C)c3c2)cc1 7.00

Need pEC50, item CC#C[C@@H](Cc1nnn[nH]1)c1ccc(OCc2ccc3scc(-c4cc(NS(C)(=O)=O)ccc4C)c3c2)cc1 6.38

Entry CC#C[C@@H](Cc1nnn[nH]1)c1ccc(OCc2ccc3scc(-c4ccc(C5CCS(=O)(=O)CC5)cc4C)c3c2)cc1 has what pEC50? 7.01

New cases:
Consider the compound shown here: CC#C[C@@H](Cc1nnn[nH]1)c1ccc(OCc2cc(C)c3scc(C4CCCCC4)c3c2)cc1 What is its recorded pEC50? 5.95

Please report the recorded pEC50 for CC#C[C@@H](Cc1nnn[nH]1)c1ccc(OCc2ccc3scc(-c4c(C)cccc4C)c3c2)cc1 . 7.62

For CC#C[C@@H](Cc1nnn[nH]1)c1ccc(OCc2cnc3scc(-c4ccccc4C)c3c2)cc1 , what is its reported pEC50? 8.00

Which pEC50 value is on record for CC#C[C@@H](Cc1nnn[nH]1)c1ccc(OCc2ccc3scc(-c4cc(Cl)ncc4C)c3c2)cc1 ? 7.19

# pEC50 lookup, item CC#C[C@@H](Cc1nnn[nH]1)c1ccc(OCc2ccc3scc(-c4ccc(S(C)(=O)=O)cc4C)c3c2)cc1 6.89

Can you share its pEC50? I mean this compound: CC#C[C@@H](Cc1nnn[nH]1)c1ccc(OCc2ccc3scc(-c4cccc5c4OCCO5)c3c2)cc1 7.21

pEC50 for CC#C[C@@H](Cc1nnn[nH]1)c1ccc(OCc2ccc3sc(C)c(-c4ccc(OC5CCS(=O)(=O)CC5)cc4C)c3c2)cc1 ? 7.10

Quick check: pEC50 of CC#C[C@@H](Cc1nnn[nH]1)c1ccc(OCc2ccc3scc(-c4nccnc4C)c3c2)cc1 ? 6.26

What value of pEC50 has been reported for the following compound? CC#C[C@@H](Cc1nnn[nH]1)c1ccc(OCc2ccc3scc(CCC)c3c2)cc1 6.89

Record request: pEC50 value, item CC#C[C@@H](Cc1nnn[nH]1)c1ccc(OCc2ccc3scc(-c4cccc(OCCOC)c4C)c3c2)nc1 6.92

GET /values?readout=pEC50&item= CC#C[C@@H](Cc1nnn[nH]1)c1ccc(OCc2ccc3scc(-c4cccc5c4CCC(C)(C)O5)c3c2)cc1 6.37

Would you mind telling me what pEC50 value was observed for CC#C[C@@H](Cc1nnn[nH]1)c1ccc(OCc2ccc3scc(-c4ccccc4C)c3n2)cc1 ? 6.77

Using the record for CC#C[C@@H](Cc1nnn[nH]1)c1ccc(OCc2ccc3scc(-c4ncnn4C)c3c2)cc1 , report its pEC50. 5.76

GET /values?readout=pEC50&item= CC#C[C@@H](Cc1nnn[nH]1)c1ccc(OCc2cc(C)c3scc(CCCC)c3c2)cc1 6.48

Param item = CC#C[C@@H](Cc1nnn[nH]1)c1ccc(OCc2ccc3scc(-c4ccccc4Br)c3c2)cc1 ; retrieve measured pEC50. 7.70

Could you tell me which pEC50 is on file for CC#C[C@@H](Cc1nnn[nH]1)c1ccc(OCc2ccc3scc(-c4ccc(OCCC(C)(C)O)cc4C)c3c2)nc1 ? 6.89

Any idea what its pEC50 is? The compound is CC#C[C@@H](Cc1nnn[nH]1)c1ccc(OCc2cnc3scc(-c4ccc(OC)cc4C)c3c2)cc1 7.28

Fill in: pEC50 of CC#C[C@@H](Cc1nnn[nH]1)c1ccc(OCc2cc3c(-c4ccccc4C)csc3cn2)cc1 is ___ 8.52

For CC#C[C@@H](Cc1nnn[nH]1)c1ccc(OCc2ccc3scc(-c4ncc(OCCOC)cc4C)c3c2)cc1 , what is its reported pEC50? 7.47

This collection of values is drawn from patent US10106553B2.
